# Tested on: pentagastrin-stimulated acid secretion
# Protocol Details: Measurement of Inhibition of Pentagastrin-stimulated Acid Secretion
# Assay type: in vivo, male Sprague-Dawley (SD)-strain rats
# Protocol Conditions: 3 mg/kg, intraduodenal, rat; acid output from 1 to 4 hours after administration; pentagastrin 15 μg/kg/hr
Attribute Measured: inhibition in vivo at 3 mg/kg (%)

Compound	Uom	Test Value
CC(C)(C)C(=O)CN1C(=O)C(NC(=O)Nc2cccc(C(=O)O)c2)CN(c2ccccc2)c2ccccc21 (racemic) [Example 70 (racemate)]	%	76.5
CC(C)(C)C(=O)CN1C(=O)C(NC(=O)Nc2cccc(SCC(=O)O)c2)CN(c2ccccc2)c2ccccc21 (centres unmarked)	%	77.2
CC(C)(C)OC(=O)CN1C(=O)C(NC(=O)Nc2cccc(C(=O)O)c2)CN(c2ccccc2)c2ccccc21 (centres unmarked)	%	45.4
Cc1ccc2c(c1)N(CC(=O)c1ccccc1C)C(=O)C(NC(=O)Nc1cccc(C(=O)O)c1)CN2C(=O)C(C)(C)C (racemic) [Example 13 (racemate)]	%	80.9
CC(C)(C)C(=O)CN1C(=O)C(NC(=O)Nc2cccc(C(=O)O)c2)CN(c2ccccc2F)c2ccccc21 (centres unmarked)	%	78

* * *

# Tested on: pentagastrin-stimulated acid secretion
# Protocol Details: Measurement of Inhibition of Pentagastrin-stimulated Acid Secretion
# Assay type: in vivo, male Sprague-Dawley (SD)-strain rats
# Protocol Conditions: 30 mg/kg, intraduodenal, rat; acid output from 1 to 4 hours after administration; pentagastrin 15 μg/kg/hr
Property: inhibition in vivo at 30 mg/kg; scope: individual molecules
Attribute Measured: inhibition in vivo at 30 mg/kg (%)

Molecule	Test Value
Cc1ccc2c(c1)N(CC(=O)c1ccco1)C(=O)C(NC(=O)Nc1cccc(C(=O)O)c1)CN2C(=O)C(C)(C)C (centres unmarked)	89.7
Cc1cccc(NC(=O)NC2CN(C(=O)C(C)(C)C)c3ccccc3N(CC(=O)c3ccccc3C)C2=O)c1 (centres unmarked)	59.4
Cc1ccc2c(c1)N(CC(=O)c1ccccc1C)C(=O)C(NC(=O)Nc1cccc(C(=O)O)c1)CN2C(=O)c1ccco1 (centres unmarked)	75.7
Cc1ccc2c(c1)N(CC(=O)c1ccccc1C)C(=O)C(NC(=O)Nc1cccc(C(=O)O)c1)CN2C(=O)C(C)(C)CCl (centres unmarked)	93.3
Cc1ccc2c(c1)N(CC(=O)C(C)(C)C)C(=O)C(NC(=O)Nc1cccc(C(=O)O)c1)CN2C1CCCCC1 (centres unmarked)	88.3

* * *

# Tested Target: CCK-B receptors (Cavia porcellus)
# Construct: Cerebral cortices were removed from Hartley-strain guinea pigs, the cerebral cortices were homogenized; from tissue; host or cells: cerebral cortex of Hartley-strain guinea pigs, crude membrane pellet
# Sequence (H0VZC5 1-426): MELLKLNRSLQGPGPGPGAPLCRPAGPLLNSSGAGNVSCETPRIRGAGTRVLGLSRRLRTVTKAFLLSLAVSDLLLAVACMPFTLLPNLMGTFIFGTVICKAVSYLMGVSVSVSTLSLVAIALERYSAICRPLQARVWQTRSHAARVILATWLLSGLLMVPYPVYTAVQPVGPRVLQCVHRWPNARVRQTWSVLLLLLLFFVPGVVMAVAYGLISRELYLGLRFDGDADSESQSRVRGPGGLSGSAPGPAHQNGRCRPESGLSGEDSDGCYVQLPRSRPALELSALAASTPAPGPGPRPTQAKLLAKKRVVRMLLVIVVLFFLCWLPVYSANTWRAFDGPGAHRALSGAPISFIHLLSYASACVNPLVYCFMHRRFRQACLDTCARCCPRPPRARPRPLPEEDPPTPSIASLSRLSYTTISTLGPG
# Protocol Details: Measurement of Binding Affinity for CCK-B Receptors
# Design: species or system Hartley-strain guinea pig
# Protocol Conditions: inhibition of specific [3H]CCK-8 (1.0 nM) binding; guinea pig cerebral cortex; 25° C., 2 hours; pH 6.5; read-out: Ki (CCK-B receptors)
pKi: −log10 of the molar value.
Attribute Measured: pKi

Compound	Test Value
Cc1ccccc1C(=O)CN1C(=O)C(NC(=O)Nc2cccc(-c3noc(=O)[nH]3)c2)CN(C(=O)C(C)(C)C)c2ccccc21 (stereo not drawn) [Example 62]	9.10
CC(C)(C)C(=O)CN1C(=O)[C@H](NC(=O)Nc2cccc(C(=O)O)c2)CN(C[C@@H]2CC[C@H]3C[C@@H]2C3(C)C)c2ccccc21 [Example 157]	8.71
COC(=O)N1CC(NC(=O)Nc2cccc(C)c2)C(=O)N(CC(=O)c2ccccc2C)c2ccccc21 (stereo not drawn) [Example 49]	8.30
Cc1ccc2c(c1)N(CC(=O)c1ccccc1C)C(=O)C(NC(=O)Nc1cccc(C(=O)O)c1)CN2C(=O)c1cccs1 (stereo not drawn) [Example 104]	9.23
CCC(C)(C)C(=O)N1CC(NC(=O)Nc2cccc(C(=O)O)c2)C(=O)N(CC(=O)c2ccccc2C)c2cc(C)ccc21 (stereo not drawn) [Example 93]	8.89
CC(C)(C)OC(=O)CN1C(=O)C(NC(=O)Nc2cccc(SCC(=O)O)c2)CN(c2ccccc2)c2ccccc21 (stereo not drawn) [Example 81]	9.25

* * *

# Tested Target: CCK-A receptors (Cavia porcellus)
# Construct: Pancreases were removed from Hartley-strain guinea pigs, the pancreases were homogenized
# Sequence (Q63931 whole entry): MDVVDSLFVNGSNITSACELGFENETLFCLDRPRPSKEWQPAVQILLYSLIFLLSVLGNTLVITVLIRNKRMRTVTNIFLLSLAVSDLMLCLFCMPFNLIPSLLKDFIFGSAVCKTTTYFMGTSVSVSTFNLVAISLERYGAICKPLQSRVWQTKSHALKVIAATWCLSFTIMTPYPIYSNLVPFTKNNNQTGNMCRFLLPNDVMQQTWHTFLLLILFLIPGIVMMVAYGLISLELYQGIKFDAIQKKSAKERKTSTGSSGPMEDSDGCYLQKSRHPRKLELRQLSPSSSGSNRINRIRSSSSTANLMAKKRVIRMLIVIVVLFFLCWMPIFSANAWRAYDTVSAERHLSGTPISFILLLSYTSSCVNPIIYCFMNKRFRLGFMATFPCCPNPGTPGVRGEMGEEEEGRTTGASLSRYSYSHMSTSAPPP
# Protocol Details: Measurement of Binding Affinity for CCK-A Receptors
# Protocol Conditions: inhibition of specific [3H]L-364,718 (0.2 nM) binding; guinea pig pancreas; 25° C., 2 hours; pH 6.5
The reader will find reported Ki values listed item by item below.
Attribute Measured: Ki (µM)

Molecule	Tested Target	Test Value
Cc1cccc(NC(=O)NC2CN(C(=O)C3CCCCC3)c3ccccc3N(CC(=O)c3ccccc3C)C2=O)c1 (stereo not shown) [Example 14]	CCK-A receptors (Cavia porcellus)	0.0132
CC(C)(C)C(=O)CN1C(=O)C(NC(=O)Nc2cccc(C(=O)O)c2)CN(c2ccccc2)c2ccccc21 (racemic) [Example 70 (racemate)]	CCK-A receptors (Cavia porcellus)	0.303
CC(C)(C)C(=O)CN1C(=O)C(NC(=O)Nc2cccc(SCC(=O)O)c2)CN(c2ccccc2)c2ccccc21 (single isomer, unassigned; (-)) [Example 88 (-form)]	CCK-A receptors (Cavia porcellus)	0.0167
Cc1ccc2c(c1)N(CC(=O)C(C)(C)C)C(=O)C(NC(=O)Nc1cccc(C(=O)O)c1)CN2c1ccccc1 (single isomer, unassigned; (-)) [Example 97]	CCK-A receptors (Cavia porcellus)	0.367
